Give measured Raw Signal for each item. Keep answers brief.
- Test Target: Human IP6K1 (Homo sapiens, UniProt Q92551)
- Construct: GST (N, cleaved yes); made in house; host or cells: C43 E. coli, pGEX-6P-2
- Sequence (Q92551 whole entry): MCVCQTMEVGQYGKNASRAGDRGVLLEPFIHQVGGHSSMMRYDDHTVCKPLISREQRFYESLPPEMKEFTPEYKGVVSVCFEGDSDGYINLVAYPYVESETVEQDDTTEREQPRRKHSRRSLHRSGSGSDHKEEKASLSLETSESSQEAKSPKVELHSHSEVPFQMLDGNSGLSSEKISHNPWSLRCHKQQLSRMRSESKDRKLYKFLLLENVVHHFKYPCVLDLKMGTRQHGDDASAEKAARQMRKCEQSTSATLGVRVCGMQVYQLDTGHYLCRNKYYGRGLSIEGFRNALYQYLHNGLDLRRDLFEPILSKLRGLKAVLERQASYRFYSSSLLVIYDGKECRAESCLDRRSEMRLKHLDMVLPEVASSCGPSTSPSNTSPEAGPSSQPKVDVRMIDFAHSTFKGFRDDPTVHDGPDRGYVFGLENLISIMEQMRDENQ
- Test Description: IP6K1 high-throughput screen of the Sigma LOPAC (ADP-Glo Max, single point);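 also: final compound concentration 10µM in 5% DMSO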
- Type: biochemical
- Condition Summary: LOPAC single-point screen, ADP-Glo Max luminescence raw signal per well
Counter-ions that a name gives are not always drawn.
The answer should be a number; do not append a unit.

Enquiry: Report Raw Signal for NC(=O)c1ccc(OCC(O)CN2CC=C(c3ccc(F)cc3)CC2)cc1 (stereo not shown) please.
Return: 63292

Enquiry: Also check CN(C)C/C=C(/c1ccc(Br)cc1)c1cccnc1 [Zimelidine dihydrochloride]
Return: 63127

Enquiry: Now consider O=C(CCCN1CCC(O)(c2ccc(Cl)cc2)CC1)c1ccc(F)cc1 .
Return: 51923

Enquiry: And for CN(C)CC[C@@H](c1ccc(Br)cc1)c1ccccn1 [(+)-Brompheniramine maleate] ?
Return: 67936

Enquiry: Another molecule: COC(=O)C(N)Cc1ccc(Cl)cc1.Cl (racemic)
Return: 67025

Enquiry: // same read-out, input: O=C1O/C(=C/Br)CCC1c1cccc2ccccc12 (stereo not shown)
Return: 52508

Enquiry: What would you report for Cc1nc2n(c(=O)c1CCN1CCC(c3noc4cc(F)ccc34)CC1)CCCC2 ?
Return: 53532

Enquiry: Next record, please: NC(=O)NO [Hydroxyurea]
Return: 51854

Enquiry: # repeat for O=C(OCCN1CCCCC1)c1c[nH]c2ccccc12
Return: 49486

Enquiry: Can you handle CC(C)(Sc1ccc(CCN(CCCCC2CCCCC2)C(=O)NC2CCCCC2)cc1)C(=O)O next?
Return: 52814
